Recorded Ki values for a group of compounds are listed next.
TEST_TARGET: Rhesus PDE2A3 (Macaca mulatta)
Sequence (B3VTJ2 1-941): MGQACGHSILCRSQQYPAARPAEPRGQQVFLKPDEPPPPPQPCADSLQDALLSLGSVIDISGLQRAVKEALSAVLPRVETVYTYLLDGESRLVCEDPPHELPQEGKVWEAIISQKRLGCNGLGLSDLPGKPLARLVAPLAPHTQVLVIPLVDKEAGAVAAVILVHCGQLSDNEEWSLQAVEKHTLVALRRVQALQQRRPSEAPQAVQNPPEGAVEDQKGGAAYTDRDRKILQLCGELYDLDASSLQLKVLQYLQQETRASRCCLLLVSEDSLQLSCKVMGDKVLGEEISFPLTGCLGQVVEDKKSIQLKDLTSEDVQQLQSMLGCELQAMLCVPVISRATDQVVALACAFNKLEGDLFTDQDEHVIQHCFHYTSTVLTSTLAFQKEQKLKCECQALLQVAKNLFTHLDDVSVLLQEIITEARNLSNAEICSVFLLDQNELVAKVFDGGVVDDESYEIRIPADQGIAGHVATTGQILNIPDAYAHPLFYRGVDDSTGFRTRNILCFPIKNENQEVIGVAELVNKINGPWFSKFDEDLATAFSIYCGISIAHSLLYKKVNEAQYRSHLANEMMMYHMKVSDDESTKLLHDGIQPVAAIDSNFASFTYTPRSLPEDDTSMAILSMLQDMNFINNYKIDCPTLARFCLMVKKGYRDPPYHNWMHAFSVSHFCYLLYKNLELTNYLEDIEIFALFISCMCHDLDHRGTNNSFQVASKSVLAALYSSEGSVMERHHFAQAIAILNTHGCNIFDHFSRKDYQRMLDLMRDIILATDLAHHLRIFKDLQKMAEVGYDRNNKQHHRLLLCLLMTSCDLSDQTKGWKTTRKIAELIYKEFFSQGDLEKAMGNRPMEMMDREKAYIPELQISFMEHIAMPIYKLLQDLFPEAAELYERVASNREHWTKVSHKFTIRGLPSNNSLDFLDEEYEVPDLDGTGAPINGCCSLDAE
MEASUREMENT_DESCRIPTION: PDE2 fluorescence polarization (IMAP FP) inhibition assay, rhesus enzyme
Format: biochemical, rhesus macaque
RECORDED_CONDITIONS: Rhesus PDE2, Lab B; read-out: Rhesus PDE2 Ki (nM) - Lab B
Record the value in nM, omitting the unit from your answer.

These recorded examples may help you get a feel for the data.
COMPOUND | Ki (nM)
CC1(C(NC(=O)c2cc(=O)[nH]c(-c3ccccc3)n2)c2ccc(SC(F)(F)F)c(F)c2)CC1 (single isomer, unassigned) [Example 707] | 8.3
O=C(N[C@@H](c1ccc(SC(F)(F)F)c(F)c1)C1CC1)c1cc(=O)[nH]c(-c2ccccc2)n1 | 12
CC(C)(C)c1ccc(CCNC(=O)c2cc(=O)[nH]c(-c3ccccc3)n2)cc1 | 2040

API: the following record is the query input.
query: Endpoint output: Ki of Cc1nc(C(=O)N[C@H](C)c2ccc(C(F)(F)F)cc2)cc(=O)[nH]1 . Value?
result: 48

* * *

Each entry below carries its recorded Ki.
TEST_TARGET: Rhesus PDE2A3 (Macaca mulatta)
MEASUREMENT_DESCRIPTION: PDE2 fluorescence polarization (IMAP FP) inhibition assay, rhesus enzyme
Type: biochemical, rhesus macaque
RECORDED_CONDITIONS: Rhesus PDE2, Lab A; read-out: Rhesus PDE2 Ki (nM) - Lab A

COMPOUND | Ki
O=C(NC1(c2ccc(C(F)(F)F)cc2)CC1)c1cc(=O)[nH]c(-c2ncccn2)n1 [Example 284] | 43 nM
Cc1nc(C(=O)N[C@H](C)c2ccc(C(F)(F)F)c(Cl)c2)cc(=O)[nH]1 [Example 47] | 41 nM
Cc1nc(C(=O)N[C@H](C)c2cc(F)c(C(F)(F)F)c(F)c2)cc(=O)[nH]1 [Example 26] | 231 nM
Cc1nc(C(=O)NC2(c3ccc(OC(F)(F)F)cc3)CCC2)cc(=O)[nH]1 [Example 269] | 158 nM
CC(C)(NC(=O)c1cc(=O)[nH]c(-c2ncccn2)n1)c1ccc(OC(F)(F)F)c(F)c1 [Example 71] | 1570 nM

Pending compound:
query: I have this compound here, O=C(NCc1c(Cl)cc(C(F)(F)F)cc1Cl)c1cc(=O)[nH]c(-c2ccccc2)n1 [Example 156] , and I need its recorded Ki.
result: > 1000 nM

* * *

TEST_TARGET: human PDE2A1 (Homo sapiens (Human), UniProt O00408)
Sequence (O00408 other isoform, or with tags, fused parts or gaps): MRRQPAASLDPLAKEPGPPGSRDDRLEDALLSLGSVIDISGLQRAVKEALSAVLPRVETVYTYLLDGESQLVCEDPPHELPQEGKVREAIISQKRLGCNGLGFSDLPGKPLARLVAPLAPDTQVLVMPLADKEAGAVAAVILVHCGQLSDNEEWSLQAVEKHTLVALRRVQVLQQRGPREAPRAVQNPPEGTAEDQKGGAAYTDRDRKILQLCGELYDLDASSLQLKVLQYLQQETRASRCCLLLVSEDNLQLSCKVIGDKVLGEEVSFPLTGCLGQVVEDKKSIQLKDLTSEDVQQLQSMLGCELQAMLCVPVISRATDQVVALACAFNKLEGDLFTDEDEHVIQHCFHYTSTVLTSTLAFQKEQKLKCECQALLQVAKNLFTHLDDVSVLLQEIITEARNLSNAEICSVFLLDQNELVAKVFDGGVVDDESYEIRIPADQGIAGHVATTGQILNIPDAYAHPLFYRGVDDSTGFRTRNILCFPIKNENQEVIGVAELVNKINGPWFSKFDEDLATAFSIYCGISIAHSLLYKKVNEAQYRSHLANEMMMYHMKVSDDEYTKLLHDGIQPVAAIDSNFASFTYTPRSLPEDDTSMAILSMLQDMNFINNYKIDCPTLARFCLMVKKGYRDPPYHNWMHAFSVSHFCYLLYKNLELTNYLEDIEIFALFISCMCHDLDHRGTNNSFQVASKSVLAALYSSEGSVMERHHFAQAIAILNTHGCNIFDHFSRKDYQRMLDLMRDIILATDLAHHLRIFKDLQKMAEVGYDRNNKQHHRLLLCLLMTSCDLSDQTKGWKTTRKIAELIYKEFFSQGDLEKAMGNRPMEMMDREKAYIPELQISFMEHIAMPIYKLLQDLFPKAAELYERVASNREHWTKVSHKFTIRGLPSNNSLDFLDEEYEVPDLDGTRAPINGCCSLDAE
MEASUREMENT_DESCRIPTION: IMAP FP PDE selectivity panel, human PDE2A1
Format: biochemical
RECORDED_CONDITIONS: Human PDE2, Lab A; read-out: Human PDE2 Ki (nM) - Lab A
MEASURED_QUANTITY: Ki (nM)
Value expressed in nM; do not type the unit.

query: # input compound: C[C@@H](NC(=O)c1cc(=O)[nH]c(-c2ncccn2)n1)c1ccc(OC(F)(F)F)c(F)c1 ; wanted: its Ki
result: 3.4

query: One more compound: Cc1nc(C(=O)N[C@H](C)c2ccc(CC(F)(F)F)cc2)cc(=O)[nH]1
result: 35

query: Could you do the same for C[C@@H](NC(=O)c1cc(=O)[nH]c(-c2ncccn2)n1)c1ccc(OC(F)(F)F)cc1 , please?
result: 6

query: Ok, now CC(C)(NC(=O)c1cc(=O)[nH]c(-c2ccccc2)n1)c1ccc(OC(F)(F)F)c(F)c1
result: 60

query: Please do the same for Cc1nc(C(=O)N[C@H](C)c2ccc(OC(F)(F)F)cc2F)cc(=O)[nH]1 as well.
result: 98

query: Thanks! And CC(C)(NC(=O)c1cc(=O)[nH]c(C2CC2)n1)c1ccc(C(F)(F)F)cc1 ?
result: 20

query: Moving on to O=C(NC1(c2ccc(C(F)(F)F)cc2)CC1)c1cc(=O)[nH]c(-c2ncccn2)n1
result: 36

query: Next up: COc1ccc(Cc2nc(C(=O)NC3(c4ccc(C(F)(F)F)cc4)CC3)cc(=O)[nH]2)cc1OC
result: 0.45

query: Likewise for COc1ccc2cc(C(C)NC(=O)c3cc(=O)[nH]c(C4CC4)n3)ccc2c1 (stereo not shown) ?
result: 81

query: Please give the result for CCc1c(C(=O)N[C@H](C)c2ccc(C(F)(F)F)cc2)nc[nH]c1=O too.
result: 2270
